Just for reference, patent US20240166609A1 is where these values come from.

# subjectOfTest: P. aeruginosa LpxC (Pseudomonas aeruginosa, UniProt P47205)
# Sequence (P47205 1-303): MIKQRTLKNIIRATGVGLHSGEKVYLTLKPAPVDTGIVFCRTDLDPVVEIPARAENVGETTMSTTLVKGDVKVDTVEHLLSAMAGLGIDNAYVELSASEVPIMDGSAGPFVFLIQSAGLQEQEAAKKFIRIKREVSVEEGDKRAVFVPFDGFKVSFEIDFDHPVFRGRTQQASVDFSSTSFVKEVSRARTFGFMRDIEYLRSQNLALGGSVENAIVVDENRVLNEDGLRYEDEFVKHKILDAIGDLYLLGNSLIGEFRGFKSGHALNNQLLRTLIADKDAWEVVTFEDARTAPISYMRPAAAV
# assayName: LpxC Binding Assay (Rapid Fire MS assay)
measurementLabel: IC50 (nM)
Give just the number in nM; leave the unit off.

Answered examples (6):
> print(dat)
                                   compound  recordedresult
1  C[C@H](O)c1nccn1[C@@H](C#Cc1ccc(-c2ccc(CO[C@@H]3C[C@H]3N)cc2)cc1)CO (racemic)            47.7
2  C[C@H](O)c1nccn1CC#Cc1ccc(-c2ccc(C3CC(NCCC#N)C3)cc2)cc1 (stereo partly shown)             8.6
3  C[C@H](O)c1nccn1[C@@H](C#Cc1ccc(-c2ccc(O[C@H]3COC[C@@H]3O)cc2)cc1)CN (relative stereo)            42.9
4  C[C@H](O)c1nccn1[C@@H](C#Cc1ccc(-c2ccc(O[C@H]3COC[C@@H]3N)cc2)cc1)CO (relative stereo)             9.8
5  C[C@H](O)c1nccn1[C@@H](C#Cc1ccc(-c2ccc(OCC(CO)CO)cc2)cc1)CO             6.6
6  C[C@H](O)c1nccn1CC#Cc1ccc(-c2ccc(C3CN(C(=O)CO)C3)cc2)cc1            12.6

Prompt: What IC50 value was documented for this compound, C[C@H](O)c1nccn1[C@@H](C#Cc1ccc(-c2ccc(O[C@@H]3C[C@H]3NCCF)cc2)cc1)CO (racemic) ?
Completion: 6
